- SYSTEM_TESTED: Large T antigen (Simian virus 40)
- PROCEDURE_TEXT: large T antigen ATP hydrolysis inhibition – biochemical, ADP-Hunter, purified TAg, synthesized compounds, set 2 (AID 449729)
- MEASUREMENT_CONDITIONS: purified TAg ATPase, ADP-Hunter fluorescence; series mostly up to 100 µM
Activity calls are given as the source filed them. No rule for the calls is given here.
OBSERVATION_TYPE: outcome

// known answers, use as guide
| MOLECULE_SMILES | outcome |
| --- | --- |
| C=C(c1ccc(F)cc1)c1ccc(F)cc1 | inactive |
| CC(C)(c1ccc(O)cc1)c1cccc(O)c1 | inactive |
| C=C(c1cccc(OC)c1)c1cccc(OC)c1 | inactive |
| COc1cccc(C(C)(O)c2cccc(OC)c2)c1 | inactive |

Consider the additional compound presented here.
Reported outcome of C=C(c1ccc(Cl)cc1)c1ccc(Cl)cc1 : inactive
